target_of_assay: T1, human PSMA (Prostate Specific Membrane Antigen, Glutamate Carboxypeptidase II) on cells (human, UniProt Q04609 1-750)
T1 construct: whole, on cells; the cell line is named under assay; also called cell surface expressed PSMA; FOLH1
experimental_details: flow cytometry on LNCaP cells
measurement_kind: fold over the background MFI signal (fold over background)
Number only, in fold over background; omit the unit.

INSERT INTO results (binder, uom, observed_result) VALUES
  ('anti-PSMA heavy chain antibody clone ID 345438 (antibody, V domains shown, heavy chain-only antibody (UniAb), no light chain) VH: QVQLVESGGGVVQPGRSLRLSCAASGFSFSSYGMHWVRQAPGKGPEWVAVIWYDGSNKYYADSVKGRFTISRDNSKNTLYLQMNSLRAEDTAVYYCAREPRIGYYYESSGYYSLDYRGQGTLVTVSS', 'fold over background', 13);

Attention now shifts to the item below.
Request: Indicate its recorded fold over the background MFI signal; the binder in question is anti-PSMA heavy chain antibody clone ID 345510 (antibody, V domains shown, heavy chain-only antibody (UniAb), no light chain) VH: QVQLVESGGGVVQPGRSLRLSCAASGFSFSSYGMHWVRQAPGKGLEWVAVIWYDGSNKYYADSVKGRFTISRDNSKNTMYLQMNSLRAEDTAVYYCAREPRIGYYYESSGYYSLDYRGQGTLVTVSS
Response: 13
